Molecular target: Serine/threonine-protein kinase pim-3 (Homo sapiens)
Assay: Inhibition of human Pim-3 using RSRHSSYPAGT as substrate assessed as residual activity at 10 uM measured for 30 mins in presence of [gamma-33P]-ATP relative to control
measured_parameter: Activity (%)

Before answering, review these 3 worked examples.
Kindly note the recorded Activity for O=Cc1cn2c3c1ccc1c4ccccc4n(c13)CC(OCCCO)C2 (stereo not given) , which is 16

Kindly note the recorded Activity for CCN(CC)CCOC1Cn2cc(C=O)c3ccc4c5ccccc5n(c4c32)C1 (stereo not given) , which is 28

Kindly note the recorded Activity for O=Cc1cn2c3c1ccc1c4ccccc4n(c13)CC(OCCCN1CCOCC1)C2 (stereo not given) , which is 24

1: CN1CCN(CCCOC2Cn3cc(C=O)c4ccc5c6ccccc6n(c5c43)C2)CC1 (stereo not given)
2: O=Cc1cn2c3c1ccc1c4ccccc4n(c13)CC(OCCN1CCCC1)C2 (stereo not given)
In: Hey, which is lower on measured Activity, 1 or 2 ? Use the label to indicate which entry you chose.
Out: 2
(2: 16.4%, 1: 26%)
